Target: human 5-HT6 receptor (Homo sapiens, UniProt P50406)
Construct: expressed in transfected cells
Sequence (P50406 whole entry): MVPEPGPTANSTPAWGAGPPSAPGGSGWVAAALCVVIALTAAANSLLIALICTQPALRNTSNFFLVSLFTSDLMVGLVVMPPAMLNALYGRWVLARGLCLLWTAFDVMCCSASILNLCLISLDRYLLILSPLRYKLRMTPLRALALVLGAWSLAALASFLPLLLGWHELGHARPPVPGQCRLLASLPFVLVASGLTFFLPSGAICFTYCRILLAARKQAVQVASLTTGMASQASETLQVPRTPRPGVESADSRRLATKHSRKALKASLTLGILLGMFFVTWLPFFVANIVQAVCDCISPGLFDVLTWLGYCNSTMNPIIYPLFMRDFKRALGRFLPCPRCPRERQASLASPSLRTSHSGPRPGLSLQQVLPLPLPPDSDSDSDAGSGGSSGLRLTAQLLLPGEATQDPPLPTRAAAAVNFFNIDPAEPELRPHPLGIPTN
Assay: Binding affinity for the 5-HT6 receptor (3H-LSD radioligand binding, membranes of cells expressing the 5-HT6 receptor)
Conditions: Ki, 60 minute incubation at 37° C.
READOUT NAME: Ki

{"COMPOUND SMILES": "CN1CCC[C@@H]1Cc1cn(S(=O)(=O)c2ccccc2)c2ccc(OC3CCCCC3)cc12", "EXPERIMENTAL TARGET": "human 5-HT6 receptor (Homo sapiens, UniProt P50406)", "REPORTED": "≤ 1 nM"}

Ki for CN1CCC[C@@H]1Cc1cn(C(=O)c2ccccc2)c2ccc(Cl)cc12 ?
≤ 1 nM

Another molecule to look at: CN1CCC[C@@H]1Cc1cn(S(=O)(=O)c2ccccc2)c2ccc(O)cc12
≤ 10 nM

----------
Target: human 5-HT6 receptor (Homo sapiens, UniProt P50406)
Construct: expressed in transfected cells
Test: Binding affinity for the 5-HT6 receptor (3H-LSD radioligand binding, membranes of cells expressing the 5-HT6 receptor)
Details: Ki, 60 minute incubation at 37° C.
READOUT NAME: Ki

{"COMPOUND SMILES": "CN1CCC[C@@H]1Cc1cn(C(=O)c2ccccc2)c2ccc(Br)cc12", "REPORTED": "≤ 1 nM"}
{"COMPOUND SMILES": "CN1CCC[C@@H]1Cc1cn(C(=O)c2ccccc2)c2ccccc12", "REPORTED": "≤ 10 nM"}
{"COMPOUND SMILES": "Cc1ccc(S(=O)(=O)n2cc(C[C@H]3CCCN3C)c3cc(F)ccc32)cc1", "REPORTED": "≤ 1 nM"}

# get_value(readout= Ki, system= human 5-HT6 receptor (Homo sapiens, UniProt P50406)) for CN1CCC[C@@H]1Cc1cn(C(=O)c2ccccc2)c2ccc(OC3CCCCC3)cc12
≤ 10 nM

Would you mind doing CN1CCC[C@@H]1Cc1cn(S(=O)(=O)c2ccccc2)c2ccc(Cl)cc12 as well?
≤ 1 nM

----------
Biological target: human 5-HT6 receptor (Homo sapiens, UniProt P50406)
Construct: expressed in transfected cells
Assay: Binding affinity for the 5-HT6 receptor (3H-LSD radioligand binding, membranes of cells expressing the 5-HT6 receptor)
Details: 60 minute incubation at 37° C., read-out: Ki
READOUT NAME: Ki

Please state recorded Ki (tested on human 5-HT6 receptor (Homo sapiens, UniProt P50406)) of CN1CCC[C@@H]1Cc1cn(S(=O)(=O)c2ccccc2)c2ccc(OCc3ccccc3)cc12
≤ 1 nM

----------
Target: human 5-HT6 receptor (Homo sapiens)
Construct: expressed in transfected cells
Test: Effect on the cAMP response of human 5-HT6 receptors in stably transfected HEK293 cells (EIA)
Assay type: cell-based
Quick reference for pEC50 among some compounds
The scale used: pEC50 is minus the common logarithm of the concentration in molar units.

The cases that follow already have their pEC50 on record.
{"COMPOUND": "CN1CCC[C@@H]1Cc1cn(S(=O)(=O)c2ccccc2)c2ccc(Cl)cc12 [Example 5d]", "REPORTED": 8.08}
{"COMPOUND": "CN1CCC[C@@H]1Cc1cn(C(=O)c2ccc(F)cc2)c2ccc(Cl)cc12 [Example 5r]", "REPORTED": 8.22}

Given the compound CN1CCC[C@@H]1Cc1cn(C(=O)c2ccccc2Cl)c2ccc(OC3CCCCC3)cc12 [Example 5j] , what is its reported pEC50?
7.19
